- target-under-test: human Mac-1 (integrin αMβ2, CD11b/CD18) (human, UniProt P11215 17-1152; P05107 23-769)
- method-notes: flow cytometry, HEK293/Mac-1 cells, PBS/MnCl2 (Mn2+), 10 µg/ml of this antibody; binding of reporter mAb m24 read
- Protocol: The HEK293/Mac-1 cells (clone1-4) were counted and washed twice with staining buffer (PBS containing 1% FBS, and 0.1% sodium azide). […] After washing with the staining buffer, the cells were analyzed by flow cytometry. […] After washing with the staining buffer, the cells were analyzed by flow cytometry. TABLE IV The anti-Mac-1 antibody can serve as an antagonist to reduce the conformational change of Mac-1. […] Binding of KIM127 or m24 was detected using flow cytometry.
Please go through the items and note down their m24 (Expression relative to IgG4).

Inquiry: Fill in: m24 (Expression relative to IgG4) of anti-Mac-1 antibody clone 24H01 (antibody, human IgG4, V domains shown) VH: EVQLVESGGGLVQPGGSLRLSCAASGFTFNNYYMSWVRQAPGKGLEWVSIIYYDGSEADYADSVKGRFTISRDNSKNTLYLQMNSLRAEDTAVYYCARNKDIYSVYGMDYWGQGTLVTVSS VL: DIQMTQSPSSLSASVGDRVTITCRASQSISNYLAWYQQKPGKAPKLLIYATSNLQSGVPSRFSGSGSGTDFTLTISSLQPEDFATYYCQQANNTPPTFGQGTKVEIK is ___
Reply text: 2.36 relative to IgG4

Inquiry: # iterate: anti-Mac-1 antibody clone 28E07 (antibody, human IgG4, V domains shown) VH: QVQLQQSGPELVKPGASVKISCKASGYSFTDYNMNWVKQSNGKSLEWIGEINPGYGTSRYNQKFKDKATLTVDQSSTTAYMQLNSLTSEDSAVYYCARADVDYGDVMDYWGQGTTVTVSS VL: DIELTQSPAIMSASPGEKVTMTCSASSSVSYMHWYQQKSGTSPKRWIYDTSKLASGVPTRFSGSGSGTSYSLTISSMEAEDAATYYCQQWSSNPPTFGAGTKLELK
Reply text: 0.85 relative to IgG4

Inquiry: Can you handle anti-Mac-1 antibody clone 27D06 (antibody, human IgG4, V domains shown) VH: QVKLQESGAEVVKPGASVKISCKASGYSFTDYNMNWVKQSNGKSLEWIGVINPNYGTTSYNQKFKGKATLTVDQSSSTAYMQLNSLTSEDSAVYYCARTYDYDGDAFAYWGQGTTVTVSS VL: DIELTQSPALMSASPGEKVTMTCRASSSVSSNNLHWYQQKSGASPKLWIYSTSNLATGAPARFSGSGSGTSYSLTISSMEAEDAATYYCQQWNSNPPTFGGGTKLEIK next?
Reply text: 1.38 relative to IgG4

Inquiry: # repeat for anti-Mac-1 antibody clone 24F09 (antibody, human IgG4, V domains shown, also called 24F9) VH: EVQLVESGGGLVQPGGSLRLSCAASGFTFSSAWMSWVRQAPGKGLEWVSTIYWSGSEINYADSVKGRFTISRDNSKNTLYLQMNSLRAEDTAVYYCARSFASGESAMDVWGQGTLVTVSS VL: DIQMTQSPSSLSASVGDRVTITCRASQSISNYLAWYQQKPGKAPKLLIYDASNLQSGVPSRFSGSGSGTDFTLTISSLQPEDFATYYCQQYYSSPPTFGQGTKVEIK
Reply text: 4.01 relative to IgG4

Inquiry: For anti-Mac-1 antibody clone 25A04 (antibody, human IgG4, V domains shown) VH: EVQLVESGGGLVQPGGSLRLSCAASGFTFSFTAMHWVRQAPGKGLEWVSAIIYNGSEADYADSVKGRFTISRDNSKNTLYLQMNSLRAEDTAVYYCARANDYDHGCCDNYAMDYWGQGTLVTVSS VL: DIQMTQSPSSLSASVGDRVTITCRASQGIGSYLYWYQQKPGKAPKLLIYDASNLQSGVPSRFSGSGSGTDFTLTISSLQPEDFATYYCMQHGGWPLTFGQGTKVEIK then?
Reply text: 2.11 relative to IgG4

Inquiry: Similarly, anti-Mac-1 antibody clone 25A06 (antibody, human IgG4, V domains shown) VH: EVQLVESGGGLVQPGGSLRLSCAASGFTFSSYYMSWVRQAPGKGLEWVSTINYDGSEKDYADSVKGRFTISRDNSKNTLYLQMNSLRAEDTAVYYCARDRLGNYPWFDVWGQGTLVTVSS VL: DIQMTQSPSSLSASVGDRVTITCRASQSISNYLAWYQQKPGKAPKLLIYDANNLQSGVPSRFSGSGSGTDFTLTISSLQPEDFATYYCQQSYSWPLTFGQGTKVEIK ?
Reply text: 3.5 relative to IgG4

Inquiry: // query: anti-Mac-1 antibody clone 27G04 (antibody, human IgG4, V domains shown) VH: QVKLQESGPELVKPGASVKISCKASGYSFTDYNMNWVKQSNGKSLEWIGVINPNYGTTSYNQKFKGKATLTVDQSSSTAYMQLNSLTSEDSAVYYCARTFDYDDDAFAYWGQGTTVTVSS VL: DIELTQSPAIMSASPGEKVTITCSASSSVSDMHWYQQKSGTSPKRWIYDTSKLASGVPARFSGSGSGTSYSLTISNMEAEDAATYYCQQWSSNPPTFGAGTKLELK
Reply text: 1.14 relative to IgG4

Inquiry: For anti-Mac-1 antibody clone m2396 (antibody, human IgG4, V domains shown) VH: QVQLQESGPGLVKPSETLSLTCTVSGFSLTSNSISWVRQPPGKGLEWMGAIWSGGGTDYNPSLKSRLTISRDTSKSQVFLKMSSLTAADTAIYFCTRGGYPYYFDYWGQGVLVTVSS VL: DIVMTQSPDSLAVSLGERVTINCKSSQSLLYSENQENYLAWYQQKPGQSPKLLIYWASTRQSGVPDRFSGSGSGTDFTLTISSVQAEDLAIYYCQQYYDTPLTFGGGTKLEIK then?
Reply text: 0.83 relative to IgG4

Inquiry: Same question, anti-Mac-1 antibody clone 24G09 (antibody, human IgG4, V domains shown) VH: EVQLVESGGGLVQPGGSLRLSCAASGFTFSDYAIGWVRQAPGKGLEWVSTIYWSGSNAYYADSVKGRFTISRDNSKNTLYLQMNSLRAEDTAVYYCARLFTLGYHGFDVWGQGTLVTVSS VL: DIQMTQSPSSLSASVGDRVTITCRASQSINTYLNWYQQKPGKAPKLLIYDASNLQSGVPSRFSGSGSGTDFTLTISSLQPEDFATYYCQQYDDLPFTFGQGTKVEIK this time
Reply text: 1 relative to IgG4

Inquiry: Cool, now anti-Mac-1 antibody clone DF3M-5 (antibody, human IgG4, V domains shown) VH: EVQLVESGGGLVQPGGSLRLSCAASGFTFGTYDMHWVRQAPGKGLEWVSMISPSGGDTYYADSVKGRFTISRDNSKNTLYLQMNSLRAEDTAVYYCARDSSGDWYAMAYWGQGTLVTVSS VL: DIQMTQSPSSLSASVGDRVTITCRASQSIRRYLAWYQQKPGKAPKLLIYGASNLQSGVPSRFSGSGSGTDFTLTISSLQPEDFATYYCQHSSDTPLTFGQGTKVEIK
Reply text: 4.4 relative to IgG4

Inquiry: Okay, and anti-Mac-1 antibody clone DF4-25 (antibody, human IgG4, V domains shown) VH: EVQLVESGGGLVQPGGSLRLSCAASGFTFKDYWLSWVRQAPGKGLEWVSIINYGGSETYYADSVKGRFTISRDNSKNTLYLQMNSLRAEDTAVYYCARTQTSYVMDYWGQGTLVTVSS VL: DIQMTQSPSSLSASVGDRVTITCRASQSVRSGLNWYQQKPGKAPKLLIYAASSLQSGVPRRFSGSGSGTDFTLTISSLQPEDFATYYCMQSHSWPLTFGQGTKVEIK ?
Reply text: 4.34 relative to IgG4
